Hi, quick share: literature pIC50 data for Serine protease 1 (Bos taurus), several sources combined.
# pIC50 is unitless: minus log10 of the molar concentration; print number only

Completed entries (count: 5):
N=C(N)N1CCC[C@@H](C[C@H](NC(=O)[C@@H]2CC[C@H]3CN(C(=O)CCc4ccccc4)CC(=O)N32)C(=O)c2nccs2)C1 : 5.36
N=C(N)c1ccc2cc(OC(=O)c3ccc(OCc4ccccc4)cc3)ccc2c1 : 7.40
CCOC(=O)CC[C@H](NC(=O)/C(C)=C/c1ccc(C(=O)Oc2ccc(C(=N)N)cc2)cc1)C(=O)OCC : 6.89
COc1ccc2ccc(S(=O)(=O)N[C@@H](CCCNC(=N)N)C(=O)N3CCC(C#N)(c4ccccc4)CC3)cc2c1 : 5.89
COc1ccc(CCC(=O)Oc2ccc3cc(C(=N)N)ccc3c2)cc1OC : 5.70

Entry `COc1cc(C(=N)N)ccc1OC(=O)c1ccc(C)cc1` — recorded pIC50 = 6.00

---

Hi, quick share: literature IC50 data for Serine protease 1 (Bos taurus, UniProt P00760), several sources combined.
The reply should contain only the number, in nM.

Completed entries (count: 7):
N=C(N)c1ccc2cc(OC(=O)C=Cc3cccnc3)ccc2c1 : 6000
Cc1ccc2ccc(S(=O)(=O)N[C@@H](CCCNC(=N)N)C(=O)N3CCC(c4ccccc4)CC3)cc2c1 : 1000
N=C(N)c1ccc2cc(OC(=O)c3ccc(Cn4ccnc4)cc3)ccc2c1 : 2000
N=C(N)c1ccc2ccc(Cn3c(=O)ccc4cc(OC5CCNCC5)ccc43)cc2c1 : 77.2
COC(=O)c1cc(C(=N)N)ccc1OC(=O)c1ccccc1 : 300
N=C(N)c1ccc(OC(=O)CCCCCNC(=O)OCc2ccccc2)c(C(=O)c2ccccc2)c1 : 6000
N=C(N)Nc1ccc(C(=O)Oc2ccc(C(=O)N3CCN(CC(=O)O)CC3)cc2)cc1 : 40

Could you now look at the following molecule, please?
The recorded IC50 with Serine protease 1 (Bos taurus, UniProt P00760) for CC(C(=O)NCCN(C)C)N1CCN(C(=O)c2ccc(OC(=O)c3ccc(NC(=N)N)cc3)cc2)CC1 (centres unmarked) was 40

---

Hi, quick share: literature log10 of IC50 data for Serine protease 1 (Bos taurus, UniProt P00760), several sources combined.
// units: nM (pre-log); metric: IC50; scale: log10

COc1ccc2ccc(S(=O)(=O)N[C@@H](CCCNC(=N)N)C(=O)N3CCN(c4ccccc4)CC3)cc2c1 : 3.18
N=C(N)c1ccc2cc(OC(=O)c3ccc(CCNC(=O)C4CCC(CN)CC4)o3)ccc2c1 (centres unmarked) : 2.90
CN(C)CCNC(=O)c1ccc(OC(=O)c2ccc(NC(=N)N)cc2)cc1 : 1.00
CCOC(=O)CN(C(=O)/C(C)=C/c1ccc(C(=O)Oc2ccc(C(=N)N)cc2)cc1)c1ccc(F)cc1 : 2.15
COc1ccc2[nH]c(C(=O)Oc3ccc4cc(C(=N)N)ccc4c3)cc2c1 : 2.30
COc1ccc2ccc(S(=O)(=O)N[C@@H](CCCNC(=N)N)C(=O)N3CCC(c4ccc(Cl)cc4)CC3)cc2c1 : 2.66

Could you now look at the following molecule, please?
The recorded log10 of IC50 with Serine protease 1 (Bos taurus, UniProt P00760) for `N=C(N)c1ccc2cc(OC(=O)c3ccco3)ccc2c1` was 2.60
